Cited source: ChEMBL document CHEMBL3804768

EXPERIMENT_SUMMARY: Cmax in CD1 mouse at 50 mg/kg, po
Assay type: ADME, organism-based
Parameters: dose 50 mg/kg, route oral
COND: in vivo
MEASURED_PROPERTY: Cmax (µg/mL)
Reply with just the number (in µg/mL).

CN1CCN(Cc2ccc(NC(=O)CNc3ccc(-c4ccc(NC(=O)C5CC5)nc4)cc3F)cc2C(F)(F)F)CC1
1.21

Q: Quick one: Cmax for CCN1CCN(Cc2ccc(NC(=O)CNc3ccc(-c4ccc(NC(=O)C5CC5)nc4)cc3)cc2C(F)(F)F)CC1 ?
Ans: 2.49

----------
This document collects pIC50 values reported for MAP kinase-interacting serine/threonine-protein kinase 2 (Homo sapiens).
Note on units: pIC50 is unitless, being -log10 of a concentration expressed in mol/L.

Worked cases, answers included:
CCN1CCN(Cc2ccc(NC(=O)COc3ccc(-c4cccnc4)cc3)cc2C(F)(F)F)CC1
7.85
CCN1CCN(Cc2ccc(NC(=O)CNc3ccc(-c4ccc(NC(=O)C5CC5)nc4)cc3)cc2C(F)(F)F)CC1
7.80

Q: Under MAP kinase-interacting serine/threonine-protein kinase 2 (Homo sapiens): pIC50 value of CCN1CCN(Cc2ccc(NC(=O)COc3ccc(-c4ccncc4)cc3)cc2C(F)(F)F)CC1 ?
Ans: 5.72

----------
EXPERIMENTAL_TARGET: Platelet-derived growth factor receptor beta (Homo sapiens)
Sequence (P09619 whole entry): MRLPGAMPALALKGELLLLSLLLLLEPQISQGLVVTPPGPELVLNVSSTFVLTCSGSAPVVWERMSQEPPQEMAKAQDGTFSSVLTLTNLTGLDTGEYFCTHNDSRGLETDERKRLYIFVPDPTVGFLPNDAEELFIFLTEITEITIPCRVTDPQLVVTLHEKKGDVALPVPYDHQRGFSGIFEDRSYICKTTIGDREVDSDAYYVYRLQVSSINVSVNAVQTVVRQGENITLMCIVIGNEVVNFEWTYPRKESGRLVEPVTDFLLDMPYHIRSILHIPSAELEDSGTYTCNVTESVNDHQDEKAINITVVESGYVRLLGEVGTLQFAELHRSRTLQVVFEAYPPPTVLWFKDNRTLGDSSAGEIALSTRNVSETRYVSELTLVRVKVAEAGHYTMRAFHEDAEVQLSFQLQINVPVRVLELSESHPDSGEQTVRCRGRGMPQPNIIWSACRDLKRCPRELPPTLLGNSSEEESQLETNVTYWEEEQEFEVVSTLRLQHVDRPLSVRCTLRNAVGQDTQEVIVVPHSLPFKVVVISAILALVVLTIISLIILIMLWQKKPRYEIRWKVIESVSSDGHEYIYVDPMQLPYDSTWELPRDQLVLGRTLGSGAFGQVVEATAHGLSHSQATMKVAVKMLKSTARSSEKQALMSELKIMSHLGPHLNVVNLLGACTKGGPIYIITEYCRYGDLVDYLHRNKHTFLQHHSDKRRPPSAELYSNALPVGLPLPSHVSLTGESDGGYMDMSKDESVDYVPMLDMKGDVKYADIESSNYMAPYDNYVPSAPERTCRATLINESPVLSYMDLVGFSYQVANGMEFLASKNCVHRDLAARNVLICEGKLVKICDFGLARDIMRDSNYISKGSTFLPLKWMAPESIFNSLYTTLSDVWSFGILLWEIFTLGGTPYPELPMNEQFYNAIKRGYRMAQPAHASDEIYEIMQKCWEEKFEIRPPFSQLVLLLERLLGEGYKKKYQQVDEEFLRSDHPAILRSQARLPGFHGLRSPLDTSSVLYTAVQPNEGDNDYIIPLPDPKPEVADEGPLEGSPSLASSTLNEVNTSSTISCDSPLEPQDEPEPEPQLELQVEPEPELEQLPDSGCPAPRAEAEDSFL
EXPERIMENT_SUMMARY: Inhibition of human recombinant PDGFRbeta expressed in sf21 cells using Poly(Glu:Tyr) as substrate in presence of [gamma32P]ATP
MEASURED_PROPERTY: pIC50
Lab note — pIC50 values are minus log10 of concentrations in M.

CN1CCN(Cc2ccc(NC(=O)CNc3ccc(-c4ccc(NC(=O)C5CC5)nc4)cc3F)cc2C(F)(F)F)CC1
5.98

Could you now look at the following compound, please?
Q: Data request, read-out pIC50, for CCN1CCN(Cc2ccc(NC(=O)CNc3ccc(-c4ccc(NC(=O)C5CC5)nc4)cc3)cc2C(F)(F)F)CC1
Ans: 5.97

----------
EXPERIMENTAL_TARGET: Tyrosine-protein kinase ABL1 (Homo sapiens, UniProt P00519, T315I)
EXPERIMENT_SUMMARY: Inhibition of full length human recombinant N-terminal His-tagged ABL (2 to 1130 residues) T315I mutant expressed in baculovirus expression system using FL-peptide 2 substrate preincubated for 10 mins followed by substrate addition measured after 60 mins by mobility shift assay
IC50 strictly under 0.09 µM means yes (1); at 0.09 µM or over means no (0).

Take a look at these entries with their results.
O=C(CNc1ccc(-c2ccc(NC(=O)C3CC3)nc2)cc1)Nc1ccc(CN2CCNCC2)c(C(F)(F)F)c1
no (0)
CC(C)C(=O)Nc1ccc(-c2ccc(NCC(=O)Nc3ccc(CN4CCNCC4)c(C(F)(F)F)c3)cc2)cn1
no (0)
CN1CCN(Cc2ccc(NC(=O)CNc3ccc(-c4ccc(NC(=O)C5CC5)nc4)cc3F)cc2C(F)(F)F)CC1
yes (1)
CCN1CCN(Cc2ccc(NC(=O)CNc3ccc(-c4ccc(NC(=O)C5CC5)nc4)cc3)cc2C(F)(F)F)CC1
yes (1)
CC(=O)Nc1ccc(-c2ccc(NCC(=O)Nc3ccc(CN4CCNCC4)c(C(F)(F)F)c3)cc2)cn1
no (0)

Q: Is it true that IC50 reported for CCN1CCN(Cc2ccc(NC(=O)COc3ccc(-c4ccc(NC(C)=O)nc4)cc3)cc2C(F)(F)F)CC1 is less than 0.09 µM?
Ans: no (0)

----------
Consider the following molecules and their measured fraction unbound readings.
EXPERIMENT_SUMMARY: Plasma protein binding in human
Assay type: ADME, cell-free
COND: read-out: PPB (converted)

Q: Look up fraction unbound: CN1CCN(Cc2ccc(NC(=O)CNc3ccc(-c4ccc(NC(=O)C5CC5)nc4)cc3F)cc2C(F)(F)F)CC1
Ans: 0.0022

Q: What does the data say about its fraction unbound? Entry: CCN1CCN(Cc2ccc(NC(=O)CNc3ccc(-c4ccc(NC(=O)C5CC5)nc4)cc3)cc2C(F)(F)F)CC1
Ans: 0.0008

----------
EXPERIMENT_SUMMARY: Half life in CD1 mouse at 5 mg/kg, iv
Assay type: ADME, organism-based
COND: in vivo
MEASURED_PROPERTY: half-life (h)
# value in h; strip the unit string

Q: Given CCN1CCN(Cc2ccc(NC(=O)CNc3ccc(-c4ccc(NC(=O)C5CC5)nc4)cc3)cc2C(F)(F)F)CC1 , state its recorded half-life.
Ans: 2.14

----------
EXPERIMENTAL_TARGET: Proto-oncogene tyrosine-protein kinase receptor Ret (Homo sapiens, UniProt P07949)
Sequence (P07949 whole entry): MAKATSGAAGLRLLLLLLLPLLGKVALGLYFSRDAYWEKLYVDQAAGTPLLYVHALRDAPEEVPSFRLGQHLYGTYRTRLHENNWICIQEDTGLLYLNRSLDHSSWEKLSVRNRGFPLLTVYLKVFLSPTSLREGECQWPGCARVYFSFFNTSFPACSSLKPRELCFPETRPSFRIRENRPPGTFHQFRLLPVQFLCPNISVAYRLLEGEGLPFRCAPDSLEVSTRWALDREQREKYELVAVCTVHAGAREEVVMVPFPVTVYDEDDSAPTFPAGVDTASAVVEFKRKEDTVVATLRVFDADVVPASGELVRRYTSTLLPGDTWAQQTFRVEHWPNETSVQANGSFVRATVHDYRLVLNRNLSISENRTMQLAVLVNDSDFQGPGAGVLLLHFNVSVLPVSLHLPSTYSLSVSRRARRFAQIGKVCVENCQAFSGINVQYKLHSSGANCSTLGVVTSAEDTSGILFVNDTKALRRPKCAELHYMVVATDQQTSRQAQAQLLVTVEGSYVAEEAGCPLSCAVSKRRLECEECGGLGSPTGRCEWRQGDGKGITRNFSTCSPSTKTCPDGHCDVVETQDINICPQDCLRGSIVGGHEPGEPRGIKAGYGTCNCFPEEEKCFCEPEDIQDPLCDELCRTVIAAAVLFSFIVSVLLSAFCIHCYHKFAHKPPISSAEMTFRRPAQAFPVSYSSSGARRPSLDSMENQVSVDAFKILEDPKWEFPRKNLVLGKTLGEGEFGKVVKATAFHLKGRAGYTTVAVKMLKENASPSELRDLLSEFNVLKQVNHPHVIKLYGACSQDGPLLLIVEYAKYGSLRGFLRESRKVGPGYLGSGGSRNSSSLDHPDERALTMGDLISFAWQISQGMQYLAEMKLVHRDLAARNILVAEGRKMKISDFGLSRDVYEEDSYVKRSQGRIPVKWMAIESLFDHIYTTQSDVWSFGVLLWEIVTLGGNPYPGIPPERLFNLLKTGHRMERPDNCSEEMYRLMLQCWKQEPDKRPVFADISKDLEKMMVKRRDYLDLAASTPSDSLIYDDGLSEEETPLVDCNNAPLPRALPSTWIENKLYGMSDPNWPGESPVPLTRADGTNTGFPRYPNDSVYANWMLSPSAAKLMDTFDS
EXPERIMENT_SUMMARY: Inhibition of human recombinant RET expressed in sf21 cells using Poly(Glu:Tyr) as substrate in presence of [gamma32P]ATP
Measured IC50 of individual entries
Reply numerically in nM, unit not repeated.

CN1CCN(Cc2ccc(NC(=O)CNc3ccc(-c4ccc(NC(=O)C5CC5)nc4)cc3F)cc2C(F)(F)F)CC1
1

# input for lookup
Q: Could you tell me which IC50 is on file for CCN1CCN(Cc2ccc(NC(=O)CNc3ccc(-c4ccc(NC(=O)C5CC5)nc4)cc3)cc2C(F)(F)F)CC1 ?
Ans: 7

----------
EXPERIMENT_SUMMARY: Oral bioavailability in CD1 mouse at 50 mg/kg
Type: ADME, organism-based
COND: in vivo
Below, each of the compounds is paired with its reported bioavailability value.
Only the number, expressed in %, is required.

CN1CCN(Cc2ccc(NC(=O)CNc3ccc(-c4ccc(NC(=O)C5CC5)nc4)cc3F)cc2C(F)(F)F)CC1
31

Okay, next one:
Q: Entry CCN1CCN(Cc2ccc(NC(=O)CNc3ccc(-c4ccc(NC(=O)C5CC5)nc4)cc3)cc2C(F)(F)F)CC1 has what bioavailability?
Ans: 80

----------
pIC50 values by entry
EXPERIMENTAL_TARGET: Vascular endothelial growth factor receptor 2 (Homo sapiens)
Sequence (P35968 whole entry): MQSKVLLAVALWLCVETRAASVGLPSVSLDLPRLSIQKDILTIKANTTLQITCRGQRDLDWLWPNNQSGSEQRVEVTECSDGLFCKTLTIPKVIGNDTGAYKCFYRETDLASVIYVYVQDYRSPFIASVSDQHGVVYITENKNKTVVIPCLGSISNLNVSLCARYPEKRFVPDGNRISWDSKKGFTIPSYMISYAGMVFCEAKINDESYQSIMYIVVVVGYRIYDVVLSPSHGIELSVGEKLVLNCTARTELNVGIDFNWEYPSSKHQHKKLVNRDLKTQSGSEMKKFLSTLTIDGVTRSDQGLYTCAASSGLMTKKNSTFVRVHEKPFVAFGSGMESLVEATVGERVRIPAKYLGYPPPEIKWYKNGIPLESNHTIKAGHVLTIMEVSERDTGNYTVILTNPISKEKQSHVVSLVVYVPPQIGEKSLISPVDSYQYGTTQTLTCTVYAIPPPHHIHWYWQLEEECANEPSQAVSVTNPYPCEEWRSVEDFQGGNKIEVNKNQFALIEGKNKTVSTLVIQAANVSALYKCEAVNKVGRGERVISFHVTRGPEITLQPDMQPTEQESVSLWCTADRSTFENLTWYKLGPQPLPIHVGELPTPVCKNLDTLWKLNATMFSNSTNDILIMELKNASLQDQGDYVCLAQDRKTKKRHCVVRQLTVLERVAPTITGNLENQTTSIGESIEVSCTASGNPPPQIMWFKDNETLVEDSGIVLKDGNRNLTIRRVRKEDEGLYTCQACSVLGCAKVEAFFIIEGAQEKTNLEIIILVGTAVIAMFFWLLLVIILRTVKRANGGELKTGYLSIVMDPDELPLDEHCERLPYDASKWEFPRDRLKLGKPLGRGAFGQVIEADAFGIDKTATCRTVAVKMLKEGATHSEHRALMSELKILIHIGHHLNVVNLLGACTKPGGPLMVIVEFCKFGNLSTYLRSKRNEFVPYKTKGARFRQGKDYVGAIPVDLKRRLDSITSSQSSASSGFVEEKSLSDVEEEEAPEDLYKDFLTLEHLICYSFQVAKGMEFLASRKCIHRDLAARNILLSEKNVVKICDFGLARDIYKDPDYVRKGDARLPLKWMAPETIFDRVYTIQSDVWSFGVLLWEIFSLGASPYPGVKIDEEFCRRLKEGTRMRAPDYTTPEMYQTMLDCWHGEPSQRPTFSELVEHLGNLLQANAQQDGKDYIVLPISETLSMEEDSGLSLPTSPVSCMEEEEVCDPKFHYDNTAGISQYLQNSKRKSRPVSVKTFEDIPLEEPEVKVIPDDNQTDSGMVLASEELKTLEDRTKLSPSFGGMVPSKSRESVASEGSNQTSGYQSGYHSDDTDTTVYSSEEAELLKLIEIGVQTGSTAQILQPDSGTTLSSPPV
EXPERIMENT_SUMMARY: Inhibition of human recombinant VEGFR2 expressed in sf21 cells using Poly(Glu:Tyr) as substrate in presence of [gamma32P]ATP
Please note pIC50 is a logarithmic value: minus log10 of concentration in mol/L. Answer with that number alone.

CCN1CCN(Cc2ccc(NC(=O)CNc3ccc(-c4ccc(NC(=O)C5CC5)nc4)cc3)cc2C(F)(F)F)CC1
7.62

Next compound, please.
Q: Recorded pIC50 for CN1CCN(Cc2ccc(NC(=O)CNc3ccc(-c4ccc(NC(=O)C5CC5)nc4)cc3F)cc2C(F)(F)F)CC1 , please?
Ans: 7.68

----------
EXPERIMENTAL_TARGET: Fibroblast growth factor receptor 2 (Homo sapiens, UniProt P21802)
Sequence (P21802 whole entry): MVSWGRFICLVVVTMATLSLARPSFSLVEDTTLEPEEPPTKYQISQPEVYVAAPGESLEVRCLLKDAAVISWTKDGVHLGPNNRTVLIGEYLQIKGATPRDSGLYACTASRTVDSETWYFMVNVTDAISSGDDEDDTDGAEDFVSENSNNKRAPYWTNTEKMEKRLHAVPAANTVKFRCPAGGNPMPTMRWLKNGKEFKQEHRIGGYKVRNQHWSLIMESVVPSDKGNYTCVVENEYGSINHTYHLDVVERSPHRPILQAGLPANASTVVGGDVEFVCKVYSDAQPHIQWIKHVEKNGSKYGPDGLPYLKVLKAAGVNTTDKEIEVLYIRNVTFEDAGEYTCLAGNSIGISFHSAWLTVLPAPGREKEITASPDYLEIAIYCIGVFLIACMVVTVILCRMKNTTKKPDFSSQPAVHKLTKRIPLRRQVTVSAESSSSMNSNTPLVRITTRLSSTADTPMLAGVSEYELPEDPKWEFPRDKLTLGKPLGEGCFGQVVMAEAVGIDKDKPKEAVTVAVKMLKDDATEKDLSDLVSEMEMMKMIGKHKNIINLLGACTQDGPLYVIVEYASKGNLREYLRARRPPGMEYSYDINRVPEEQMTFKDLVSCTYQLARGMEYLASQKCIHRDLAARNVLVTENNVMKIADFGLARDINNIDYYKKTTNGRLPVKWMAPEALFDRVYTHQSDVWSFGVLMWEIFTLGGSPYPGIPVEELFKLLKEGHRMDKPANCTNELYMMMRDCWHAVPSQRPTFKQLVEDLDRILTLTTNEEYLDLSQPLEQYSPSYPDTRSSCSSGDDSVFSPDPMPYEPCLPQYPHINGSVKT
EXPERIMENT_SUMMARY: Inhibition of human recombinant FGFR2 expressed in sf21 cells using Poly(Glu:Tyr) as substrate in presence of [gamma32P]ATP
MEASURED_PROPERTY: IC50 (nM)
Write the answer as a number in nM, unit excluded.

CCN1CCN(Cc2ccc(NC(=O)CNc3ccc(-c4ccc(NC(=O)C5CC5)nc4)cc3)cc2C(F)(F)F)CC1
930

Q: // IC50 lookup, key: CN1CCN(Cc2ccc(NC(=O)CNc3ccc(-c4ccc(NC(=O)C5CC5)nc4)cc3F)cc2C(F)(F)F)CC1
Ans: 272

----------
EXPERIMENT_SUMMARY: Clearance in CD1 mouse at 10 mg/kg, iv
Format: ADME, organism-based
COND: in vivo
MEASURED_PROPERTY: clearance (mL/min/kg)
Provide the reading as a plain figure in mL/min/kg.

Q: Report clearance for CN1CCN(Cc2ccc(NC(=O)CNc3ccc(-c4ccc(NC(=O)C5CC5)nc4)cc3F)cc2C(F)(F)F)CC1 please.
Ans: 50

----------
EXPERIMENT_SUMMARY: Clearance in CD1 mouse at 5 mg/kg, iv
Assay type: ADME, organism-based
COND: in vivo
MEASURED_PROPERTY: clearance (mL/min/kg)
The reply should contain only the number, in mL/min/kg.

Q: Which clearance value belongs to CCN1CCN(Cc2ccc(NC(=O)CNc3ccc(-c4ccc(NC(=O)C5CC5)nc4)cc3)cc2C(F)(F)F)CC1 ?
Ans: 45

----------
EXPERIMENT_SUMMARY: AUC in CD1 mouse at 50 mg/kg, po
Format: ADME, organism-based
COND: in vivo
Measured AUC values are reported for all entries that follow.
Your answer is read as ng·h/mL, so omit the unit and give the number.

CCN1CCN(Cc2ccc(NC(=O)CNc3ccc(-c4ccc(NC(=O)C5CC5)nc4)cc3)cc2C(F)(F)F)CC1
14300

Q: Form field: reported AUC of CN1CCN(Cc2ccc(NC(=O)CNc3ccc(-c4ccc(NC(=O)C5CC5)nc4)cc3F)cc2C(F)(F)F)CC1
Ans: 5130

----------
Measured pIC50 (Cytochrome P450 3A4 (Homo sapiens, UniProt P08684))
Quick note: pIC50 values are minus log10 of concentrations in mol/L.

Q: Lookup: pIC50 / Cytochrome P450 3A4 (Homo sapiens, UniProt P08684) / CC(=O)Nc1ccc(-c2ccc(NCC(=O)Nc3ccc(CN4CCNCC4)c(C(F)(F)F)c3)cc2)cn1
Ans: 5.62

Q: Query for Cytochrome P450 3A4 (Homo sapiens, UniProt P08684): what pIC50 does the record show for CCN1CCN(Cc2ccc(NC(=O)CNc3ccc(-c4ccc(NC(C)=O)nc4)cc3)cc2C(F)(F)F)CC1 ?
Ans: 5.49

Q: Item O=C(CNc1ccc(-c2ccc(NC(=O)C3CC3)nc2)cc1)Nc1ccc(CN2CCNCC2)c(C(F)(F)F)c1 with Cytochrome P450 3A4 (Homo sapiens, UniProt P08684) - pIC50?
Ans: 5.96
